target: mitochondrial pyruvate carrier (MPC) (Homo sapiens, UniProt O95563+Q9Y5U8); experiment: Bret IC50, inhibitory activity against MPC; type: cell-based
propertyMeasured: pIC50
In plain terms, pIC50 is the concentration in mol/L turned into minus its base-10 logarithm.

Check out these entries, answers already filled in.
compound="CC(C)Cc1cc(=O)[nH]c2nnc(SCc3c(F)cccc3Cl)n12 [Compound 40]" measurementtarget="mitochondrial pyruvate carrier (MPC) (Homo sapiens, UniProt O95563+Q9Y5U8)" readoutnumber=6.41
compound="CCCc1cc(=O)[nH]c2nnc(SCc3cccc(OC)c3)n12 [Compound 17]" measurementtarget="mitochondrial pyruvate carrier (MPC) (Homo sapiens, UniProt O95563+Q9Y5U8)" readoutnumber=5.69
compound="O=c1cc(CCOCc2ccccc2Cl)n2c(SCc3cc(F)ccc3F)nnc2[nH]1 [Compound 33]" measurementtarget="mitochondrial pyruvate carrier (MPC) (Homo sapiens, UniProt O95563+Q9Y5U8)" readoutnumber=5.88
compound="CCCc1cc(=O)[nH]c2nnc(SCc3cccc4ccccc34)n12 [Compound 90]" measurementtarget="mitochondrial pyruvate carrier (MPC) (Homo sapiens, UniProt O95563+Q9Y5U8)" readoutnumber=5.60
compound="CCCc1cc(=O)[nH]c2nnc(S(=O)(=O)Cc3c(F)cccc3Cl)n12 [Compound 50]" measurementtarget="mitochondrial pyruvate carrier (MPC) (Homo sapiens, UniProt O95563+Q9Y5U8)" readoutnumber=4.95
compound="CCCc1cc(=O)[nH]c2nnc(SCc3cc(F)ccc3C)n12 [Compound 12]" measurementtarget="mitochondrial pyruvate carrier (MPC) (Homo sapiens, UniProt O95563+Q9Y5U8)" readoutnumber=6.25
compound="Cc1cc(=O)[nH]c2nnc(SCc3cc(F)ccc3F)n12 [Compound 29]" measurementtarget="mitochondrial pyruvate carrier (MPC) (Homo sapiens, UniProt O95563+Q9Y5U8)" readoutnumber=5.24
compound="CCCc1cc(=O)[nH]c2nnc(SCc3cc(F)ccc3OC)n12 [Compound 9]" measurementtarget="mitochondrial pyruvate carrier (MPC) (Homo sapiens, UniProt O95563+Q9Y5U8)" readoutnumber=6.06
compound="O=c1cc(CC2CC2)n2c(SCc3c(F)cccc3Cl)nnc2[nH]1 [Compound 41]" measurementtarget="mitochondrial pyruvate carrier (MPC) (Homo sapiens, UniProt O95563+Q9Y5U8)" readoutnumber=6.89
compound="CCCc1cc(=O)[nH]c2nnc(Sc3ccccc3)n12 [Compound 47]" measurementtarget="mitochondrial pyruvate carrier (MPC) (Homo sapiens, UniProt O95563+Q9Y5U8)" readoutnumber=6.78

Query (compound): CCCc1c(C)c(=O)[nH]c2nnc(SCc3c(F)cccc3Cl)n12 [Compound 48] ; field requested: pIC50
6.06

Query (compound): O=c1cc(CCOCc2ccccc2)n2c(SCc3c(F)cccc3Cl)n[nH]c2n1 [Compound 43] ; field requested: pIC50
6.09

Query (compound): CCCc1cc(=O)[nH]c2nnc(SCc3ccoc3)n12 [Compound 15] ; field requested: pIC50
5.68

Query (compound): O=c1cc(CCOCc2ccccc2)n2c(SCc3cc(F)ccc3F)nnc2[nH]1 [Compound 30] ; field requested: pIC50
6.03

Query (compound): CCCc1cc(=O)[nH]c2nnc(SCc3c(C)cccc3C)n12 [Compound 25] ; field requested: pIC50
6.23

###

target: mitochondrial pyruvate carrier (MPC) (Homo sapiens, UniProt O95563+Q9Y5U8); assay: Bret IC50, inhibitory activity against MPC; format: cell-based
Listed here are molecules together with their documented IC50.
Write the answer as a number in nM, unit excluded.

molecule="CCCc1cc(=O)[nH]c2nnc(SCc3cc(F)ccc3C#N)n12 [Compound 8]" measurementtarget="mitochondrial pyruvate carrier (MPC) (Homo sapiens, UniProt O95563+Q9Y5U8)" propertymeasured=IC50 unitslabel=nM readoutnumber=5390

Query (molecule): CCCc1cc(=O)[nH]c2nnc(SCCc3ccccc3)n12 [Compound 14] ; field requested: IC50
1750

Query (molecule): CCCc1cc(=O)[nH]c2nnc(SCc3cc(F)cc(F)c3)n12 [Compound 3] ; field requested: IC50
2200

Query (molecule): O=c1cc(Cc2ccccc2)n2c(SCc3c(F)cccc3Cl)nnc2[nH]1 [Compound 45] ; field requested: IC50
117

Query (molecule): CCCc1cc(=O)[nH]c2nnc(SCc3ccc4occc4c3)n12 [Compound 19] ; field requested: IC50
3480

Query (molecule): CCCc1cc(=O)[nH]c2nnc(SCc3cccc(C#N)c3)n12 [Compound 7] ; field requested: IC50
10200

Query (molecule): O=c1cc(C2CC2)n2c(SCc3c(F)cccc3Cl)nnc2[nH]1 [Compound 39] ; field requested: IC50
593

Query (molecule): COCc1cc(=O)[nH]c2nnc(SCc3cc(F)ccc3F)n12 [Compound 31] ; field requested: IC50
5660

###

Target: mitochondrial pyruvate carrier (MPC) (Homo sapiens, UniProt O95563+Q9Y5U8)
Sequence (Q9Y5U8 1-109): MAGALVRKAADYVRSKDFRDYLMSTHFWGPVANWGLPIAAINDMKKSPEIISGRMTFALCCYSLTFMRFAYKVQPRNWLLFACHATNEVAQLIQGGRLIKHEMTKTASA
Sequence (O95563 1-127): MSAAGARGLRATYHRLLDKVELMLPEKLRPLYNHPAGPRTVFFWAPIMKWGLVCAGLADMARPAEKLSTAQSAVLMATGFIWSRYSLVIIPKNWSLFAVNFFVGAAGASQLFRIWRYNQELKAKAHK
Assay: Bret IC50, inhibitory activity against MPC
Format: cell-based
Excerpt: The inhibition of mitochondrial pyruvate carrier (MPC) by compounds of the invention have been tested as follows and their inhibitory activity was expressed as IC50s values. Table 2 below presents the IC50s of the compounds of the invention.
propertyMeasured: pIC50
In plain terms, pIC50 is the concentration in mol/L turned into minus its base-10 logarithm.

Hi! What's the reported pIC50 for CCCc1cc(=O)[nH]c2nnc(CCc3ccccc3)n12 on mitochondrial pyruvate carrier (MPC) (Homo sapiens, UniProt O95563+Q9Y5U8)?
5.44

Hi! What's the reported pIC50 for Cc1cc(=O)[nH]c2nnc(SCc3ccc(Cl)cc3)n12 on mitochondrial pyruvate carrier (MPC) (Homo sapiens, UniProt O95563+Q9Y5U8)?
4.90

Hi! What's the reported pIC50 for N#Cc1ccc(CSc2nnc3[nH]c(=O)cc(Cc4ccccc4)n23)cc1 on mitochondrial pyruvate carrier (MPC) (Homo sapiens, UniProt O95563+Q9Y5U8)?
5.33

Hi! What's the reported pIC50 for CCCc1cc(=O)[nH]c2nnc(SCc3ccc(C#N)cc3)n12 on mitochondrial pyruvate carrier (MPC) (Homo sapiens, UniProt O95563+Q9Y5U8)?
5.38

Source listed as patent US20240360143A1.
